assay: Displacement of [3H]nisoxetine from NET in Sprague-Dawley rat frontal cortex membranes incubated for 180 mins by radioligand binding assay; design: species or system Membrane
pKi: −log10 of the molar value.
Measured property: pKi

Exam item: What value of measured pKi is listed for [O-][S+](CCN1CCN(Cc2ccc(Cl)cc2)CC1)C(c1ccc(F)cc1)c1ccc(F)cc1 (stereo not drawn) ?
Marked response: < 4.30

Exam item: Give the measured pKi of [O-][S+](CCN1CCN(Cc2ccc(C(F)(F)F)cc2)CC1)C(c1ccc(F)cc1)c1ccc(F)cc1 (stereo not drawn) .
Marked response: < 4.30

Exam item: Entry CC(O)CN1CCN(CC[S+]([O-])C(c2cccc(Cl)c2)c2cccc(Cl)c2)CC1 (stereo not drawn) has what pKi?
Marked response: < 4.30
